Assay: qHTS of pediatric cancer cell lines to identify multiple opportunities for drug repurposing: Primary screen for MG 63 (6-TG R) cells (AID 1347105); note: nearly all actives have a fitted effect of over 50% in size
Conditions: MG 63 (6-TG R) viability, CellTiter-Glo, 48 h; series mostly up to 46 µM
Records with an inconclusive call do not appear. Activity calls are given as the source filed them. Calls come from the whole dose curve; as a rule, active = well fitted cell-killing curve with a large enough effect; inconclusive = small, poorly fitted or top-dose-only effect; inactive = no such curve, though single readings can be large or run the other way.
Classes used: active, inactive

molecule | class label
COc1ccc(C2C(=O)c3ccccc3C2=O)cc1 | inactive
Cc1ccc(O)c2ncccc12 | active
CCN1CCC[C@H]1CNC(=O)c1c(OC)ccc(Br)c1OC | inactive
CC(=O)O[C@]1(C(C)=O)CC[C@H]2[C@@H]3C[C@H](C)C4=CC(=O)CC[C@]4(C)[C@H]3CC[C@@]21C | inactive
CCCCC1=NC2(CCCC2)C(=O)N1Cc1ccc(-c2ccccc2-c2nn[nH]n2)cc1 | inactive
CC1(C)O[C@@H]2C[C@H]3[C@@H]4C[C@H](F)C5=CC(=O)CC[C@]5(C)[C@H]4[C@@H](O)C[C@]3(C)[C@]2(C(=O)CO)O1 | inactive
COCc1c(C(C)C)nc(C(C)C)c(/C=C/[C@@H](O)C[C@@H](O)CC(=O)O)c1-c1ccc(F)cc1 | active
CCC(C(=O)OCCN(CC)CC)c1ccccc1 (configuration not stated) | inactive
CCCCCCCCCCCCCCNCCO | inactive
CCCCCCCCCCCCCCCC[N+](C)(C)CC | active
c1ccc(OCc2ccc(CCCN3CCOCC3)cc2)cc1 | inactive
CCCCCC=CCC=CCCCCCCCC(=O)OCC | inactive

---

Target: Furin (Homo sapiens) (UniProt P09958)
Sequence (P09958 whole entry, looked up): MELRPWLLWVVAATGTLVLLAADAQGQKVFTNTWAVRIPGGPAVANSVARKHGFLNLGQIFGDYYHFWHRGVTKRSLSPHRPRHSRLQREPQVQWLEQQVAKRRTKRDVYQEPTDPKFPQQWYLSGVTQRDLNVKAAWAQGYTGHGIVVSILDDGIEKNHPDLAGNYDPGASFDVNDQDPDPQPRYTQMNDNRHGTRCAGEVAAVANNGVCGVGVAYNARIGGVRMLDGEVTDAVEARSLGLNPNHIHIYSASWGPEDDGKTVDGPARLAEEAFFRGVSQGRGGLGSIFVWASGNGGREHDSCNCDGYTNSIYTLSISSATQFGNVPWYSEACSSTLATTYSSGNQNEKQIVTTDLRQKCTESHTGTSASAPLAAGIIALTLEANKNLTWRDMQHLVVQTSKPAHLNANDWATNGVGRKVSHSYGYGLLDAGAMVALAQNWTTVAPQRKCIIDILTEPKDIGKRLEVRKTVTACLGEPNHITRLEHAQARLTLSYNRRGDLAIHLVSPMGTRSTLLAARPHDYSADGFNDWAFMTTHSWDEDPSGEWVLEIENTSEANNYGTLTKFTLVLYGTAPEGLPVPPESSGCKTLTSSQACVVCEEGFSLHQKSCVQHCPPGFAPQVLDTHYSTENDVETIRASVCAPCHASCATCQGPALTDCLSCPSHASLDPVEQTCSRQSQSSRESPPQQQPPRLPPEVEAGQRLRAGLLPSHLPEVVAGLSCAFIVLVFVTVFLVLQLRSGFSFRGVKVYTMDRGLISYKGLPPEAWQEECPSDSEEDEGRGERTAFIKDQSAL
Experiment: Furin counterscreen qHTS for Zika virus inhibitors (AID 1347149);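 note: purified recombinant full-length human furin enzyme at 5 nM; fluorescence gain from furin cutting a BOC-RVRR-AMC peptide substrate over 15 min; top concentration of the series differs between compounds; plate controls were no-inhibitor control for no effect and no-enzyme control for full effect; nearly all actives have a fitted effect of over 70% in size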
Conditions: furin enzymatic counterscreen, fluorogenic substrate; series mostly up to 57.5 µM
Inconclusive results are not listed. Calls of active or inactive are those of the source. Calls come from the whole dose curve; as a rule, active = well fitted inhibition curve with a large enough effect; inconclusive = small, poorly fitted or top-dose-only effect; inactive = no such curve, though single readings can be large or run the other way.

chemical smiles | outcome
Oc1c(Cl)cc(Cl)cc1Sc1cc(Cl)cc(Cl)c1O | inactive
CC(C)(C)CC(C)(C)c1ccc(OCCOCC[N+](C)(C)Cc2ccccc2)cc1 | inactive
COc1c(C)c2c(c(O)c1C/C=C(\C)CCC(=O)O)C(=O)OC2 | inactive
Nc1ccn([C@@H]2O[C@H](CO)[C@@H](O)C2(F)F)c(=O)n1 | inactive

---

Tested on: DIV14
Test: qHTS profiling for inhibitors of Plasmodium falciparum proliferation (AID 504749); note: nearly all actives have a fitted effect of over 60% in size
Details: P. falciparum in erythrocytes, SYBR Green DNA, 72 h; series mostly up to 28.7 µM
Results filed as inconclusive are left out. Activity calls are given as the source filed them. The call rests on the fitted dose curve; in most records, active means well fitted inhibition curve with a large enough effect; inconclusive means small, poorly fitted or top-dose-only effect; inactive means flat fitted curve, though single readings scatter.
Labels: active, inactive

molecule | system name | class label
COc1cc(-c2ccc(=O)[nH]n2)ccc1OC(F)F | DIV14 | inactive
COc1cc2c(cc1OC)C(=O)C(CC1CCN(Cc3ccccc3)CC1)C2 (stereo unspecified) | DIV14 | active
CCN(CC)CCOc1ccc(C(O)(Cc2ccc(Cl)cc2)c2ccc(C)cc2)cc1 (stereo unspecified) | DIV14 | active
Oc1ccc(Cl)c2cccnc12 | DIV14 | inactive
COc1ccc(/C=C/C(=O)c2ccc(OC)cc2OC)cc1 | DIV14 | active
C1CCc2nnnn2CC1 | DIV14 | inactive

---

Test system: MCC-26
Assay: qHTS assay to identify novel small-molecules to repurpose for Merkel cell carcinoma treatment (AID 1296009); note: nearly all actives have a fitted effect of over 60% in size
Details: MCC and control cell lines, CellTiter-Glo viability, 72 h; series mostly up to 46 µM
Records with an inconclusive call do not appear. Active and inactive are the calls of the source. The call rests on the fitted dose curve; in most records, active means well fitted inhibition curve with a large enough effect; inconclusive means small, poorly fitted or top-dose-only effect; inactive means flat fitted curve, though single readings scatter. Numbered stars: 1 amine (or outer) side, 2 acyl side, 3 side chain; on linkers, the order of the positions; unused ones are H or OH. Bridge positions count the residues as written; N and C are the ends. Square brackets hold non-standard residues; d marks the D form. Peptide text beside a SMILES is read from it. I, II: the chains in the order shown. Actinocin(9to1) = Cc1c2oc3c(C)ccc(C(=O)[*:1])c3nc-2c(C(=O)[*:2])c(N)c1=O; NMeV = CN[C@H](C(=O)O)C(C)C; Sar = CNCC(=O)O
Outcomes: true (1) = active, false (0) = inactive

compound | class label
Cc1c2oc3c(C)ccc(C(=O)N[C@@H]4C(=O)N[C@H](C(C)C)C(=O)N5CCC[C@H]5C(=O)N(C)CC(=O)N(C)[C@@H](C(C)C)C(=O)O[C@@H]4C)c3nc-2c(C(=O)N[C@@H]2C(=O)N[C@H](C(C)C)C(=O)N3CCC[C@H]3C(=O)N(C)CC(=O)N(C)[C@@H](C(C)C)C(=O)O[C@@H]2C)c(N)c1=O (I: T[dV]P[Sar][NMeV] / II: T[dV]P[Sar][NMeV]; ester I:1-I:C, II:1-II:C; linker I:N-II:N via Actinocin(9to1)) | true (1)
CCOC(=O)/C=C(C)/C=C/C=C(C)/C=C/c1c(C)cc(OC)c(C)c1C | false (0)
c1ccc(-c2ccc(C(c3ccccc3)n3ccnc3)cc2)cc1 (configuration not stated) | false (0)
C[C@H](O)C(=O)Nc1c(I)c(C(=O)NC(CO)CO)c(I)c(C(=O)NC(CO)CO)c1I | false (0)
COc1cc(N)c(Cl)cc1C(=O)NC1CCN(CCCOc2ccc(F)cc2)CC1OC (configuration not stated) | false (0)
Cc1cccn2c(=O)c(-c3nnn[nH]3)cnc12 | false (0)
OC[C@H]1O[C@H](O[C@]2(CCl)O[C@H](CCl)[C@@H](O)[C@@H]2O)[C@H](O)[C@@H](O)[C@H]1Cl | false (0)
COc1cc(-c2ccc(=O)[nH]n2)ccc1OC(F)F | false (0)
CCCCCCc1ccc(O)cc1O | false (0)
Cc1onc(-c2c(Cl)cccc2Cl)c1C(=O)N[C@@H]1C(=O)N2[C@@H]1SC(C)(C)[C@@H]2C(=O)O | false (0)
CCCCS(=O)(=O)N[C@@H](Cc1ccc(OCCCCC2CCNCC2)cc1)C(=O)O | false (0)
OCc1ccccc1O | false (0)
N[C@H](Cc1c[nH]c2ccccc12)C(=O)O | false (0)
CCOc1ccc(Cc2nccc3cc(OCC)c(OCC)cc23)cc1OCC | false (0)
CC1(C)O[C@@H]2C[C@H]3[C@@H]4C[C@H](F)C5=CC(=O)C=C[C@]5(C)[C@H]4[C@@H](O)C[C@]3(C)[C@]2(C(=O)CO)O1 | false (0)
CN1CCN(CCCN2c3ccccc3Sc3ccc(S(=O)(=O)N(C)C)cc32)CC1 | false (0)
CC(=O)N/N=C/c1ccc([N+](=O)[O-])o1 | false (0)
